Measured values drawn from ChEMBL document CHEMBL3856278 for this set.

# assay.protocol: Binding affinity to free porcine brain tubulin dimers after 30 mins by fluorescence quenching assay
# Parameters: species or system Sus scrofa
pKd: −log10 of the molar value.
Below is a list of entries, each paired with its recorded pKd value.

compound	pKd
CC(=O)C(=O)N[C@@H]1/C=C(\C)C=C[C@@H](O)C/C=C(C)/C=C/[C@@H](O)C[C@H]2OC(=O)[C@]1(C)C(=O)[C@@H]2C	3.26
CC(=O)O[C@@H]1/C=C/C(C)=C/C[C@H](O)/C=C/C(C)=C/[C@@H](NC(=O)C(C)O)[C@]2(C)C(=O)O[C@H](C1)[C@@H](C)C2=O (some centres not stated)	2.96
